tested on: A549; assay: NCI tumour cell line growth inhibition, 48 h
Calls of active or inactive are those of the source. Rule as the data show it: active = GI50 up to about 1.1 µM and inactive = higher.
measured parameter: GI50

- compound: "c1cc(-c2ccc(-c3ccc(-c4ccc(-c5cccc6nsnc56)[nH]4)c4nsnc34)[nH]2)c2nsnc2c1"
  tested system: "A549"
  test result: "> 100 µM (inactive)"
- compound: "COC(=O)c1ccc2c(c1)sc1nc(-c3ccc(OC)cc3)cn12"
  tested system: "A549"
  test result: "> 100 µM (inactive)"
- compound: "COS(=O)(=O)OCCC(NC(=O)OCc1ccccc1)C(=O)OCc1ccccc1 (stereo not given)"
  tested system: "A549"
  test result: "> 100 µM (inactive)"
- compound: "CCCN(CCC)c1cc2c(cc1F)c(=O)c(C(=O)O)cn2-c1ccc(N2CCN(C)CC2)cn1"
  tested system: "A549"
  test result: "16.1 µM (inactive)"
- compound: "CN(C)CC/C(=N\\Nc1ccccc1)c1ccccc1"
  tested system: "A549"
  test result: "45 µM (inactive)"
- compound: "Cc1ccc([S+]([O-])CC(CF)OCn2cc(C)c(=O)[nH]c2=O)cc1 (stereo not given)"
  tested system: "A549"
  test result: "> 100 µM (inactive)"
- compound: "N#CCCN(c1ccc(C=O)cc1)S(=O)(=O)c1ccccc1"
  tested system: "A549"
  test result: "> 100 µM (inactive)"
- compound: "CSC1(C)CC2C(CC1N1CCOCC1)C2(C)C (stereo not given)"
  tested system: "A549"
  test result: "> 100 µM (inactive)"
- compound: "O=C1C(Br)=CC2([N+](=O)[O-])CCNC3=C(C4=NCCc5c[nH]c(c54)C3=O)C2=C1Br (stereo not given)"
  tested system: "A549"
  test result: "3 µM (inactive)"
- compound: "Oc1ccc[nH]c1=[Se]"
  tested system: "A549"
  test result: "32.9 µM (inactive)"

----------
Readings of GI50 for the listed molecules
system: SK-MEL-28; experiment: NCI tumour cell line growth inhibition, 48 h
The source made the active and inactive calls. Cut-off read from the data, not from the text of the source: active = GI50 up to about 1.1 µM and inactive = higher.

- chemical structure: "CCCCCCCCCCNC(=S)OCCCC"
  GI50: "25.8 µM (inactive)"
- chemical structure: "CCCN(CCC)c1cc2c(cc1F)c(=O)c(C(=O)O)cn2-c1ccc(N2CCN(C)CC2)cn1"
  GI50: "19.6 µM (inactive)"
- chemical structure: "COC(=O)Nc1nc2cc(NS(=O)(=O)c3cccs3)ccc2[nH]1"
  GI50: "19.3 µM (inactive)"
- chemical structure: "O=C(CP(c1ccccc1)c1ccccc1)c1cccc(C(=O)CP(c2ccccc2)c2ccccc2)c1"
  GI50: "92 µM (inactive)"
- chemical structure: "CC(C)[C@](O)(C(=O)OCC1=CCN2CC[C@@H](O)[C@@H]12)[C@H](C)O"
  GI50: "> 375 µM (inactive)"

----------
system: RPMI-8226; experiment: NCI tumour cell line growth inhibition, 48 h
Active and inactive are the calls of the source. Rule as the data show it: active = GI50 up to about 1.1 µM and inactive = higher.
Outcomes: 1.0 for active, 0.0 for inactive

- compound: "COc1ccc(Cc2nn(C3OC(COC(C)=O)C(OC(C)=O)C(OC(C)=O)C3OC(C)=O)c(=S)n(-c3ccc(OC)cc3)c2=O)cc1 (centres undefined)"
  category label: 0.0
- compound: "COC(=O)C1CC(C=[N+](C)C)=C(SC)N1C(=O)OCc1ccccc1 (centres undefined)"
  category label: 0.0
- compound: "COC(=O)Nc1nc2cc(NS(=O)(=O)c3cccs3)ccc2[nH]1"
  category label: 0.0
- compound: "COc1ccc(-n2c(=O)c3nc[nH]c3n(-c3ccc(OC)cc3)c2=S)cc1"
  category label: 0.0
- compound: "CCOC(=O)Oc1cc2ccsc2c2c1c1ccccc1n2C(=O)OCC"
  category label: 0.0
- compound: "CCCCCCCCCCNC(=S)OCCCC"
  category label: 0.0
- compound: "Fc1ccc2c(c1)nc1n2C(c2c(F)cccc2F)SC1 (centres undefined)"
  category label: 0.0
- compound: "O=C(O)[C@@H]1C[C@@H](O)CN1"
  category label: 0.0
- compound: "CC1(O)CCC2(C)C(=O)C1(C)CCC21OCCO1 (centres undefined)"
  category label: 0.0
- compound: "NCCCC(N)C(=O)O (centres undefined)"
  category label: 0.0
- compound: "CC(=O)C1Cn2c(=O)c3cc4ccccc4cc3c(=O)n2C=C1C (centres undefined)"
  category label: 0.0
- compound: "O=[N+]([O-])c1ccc(/C=N/Nc2nc3ccccc3[nH]2)o1"
  category label: 0.0
- compound: "N#C/N=C(\\NCCc1c[nH]c2ccccc12)NCc1ccccc1"
  category label: 0.0
- compound: "CCSC(SCC)=C1C(=O)N(c2ccccc2)N=C1C"
  category label: 0.0
- compound: "CCOc1ccc(/C=C(\\Cl)c2ccc(OC)cc2)cc1"
  category label: 0.0
- compound: "CC(C)(C)C1=CC(=C2C=Cc3cc(O)ccc3O2)C=C(C(C)(C)C)C1=O"
  category label: 1.0
- compound: "CC1=COC(=O)c2ccccc2N1"
  category label: 0.0
- compound: "CCOC(=O)Cc1c(C)c2cc(C(=O)c3ccccc3)c(O)cc2oc1=O"
  category label: 0.0
- compound: "CCN(c1ccccc1)[C@H]1C(=O)N(c2ccc([N+](=O)[O-])cc2)[C@H]1c1ccc(OC)cc1"
  category label: 0.0
- compound: "Cc1ccccc1S(=O)(=O)Nn1cnc2ccc(S(=O)(=O)Nc3ccc(Cl)cc3)cc2c1=O"
  category label: 0.0
- compound: "C=C1CCC2CC1C(C(=O)c1c[nH]c3ccccc13)=NC2(C)C (centres undefined)"
  category label: 0.0
- compound: "CC(=O)c1ccc2c(ccc(=O)n2C)c1"
  category label: 0.0
- compound: "CCN(CC)CCC(=O)c1ccc(Oc2ccccc2)cc1"
  category label: 0.0
- compound: "N#C/C(c1nc2ccccc2[nH]1)=c1\\s/c(=C/c2ccccc2)c(=O)n1-c1ccccc1"
  category label: 0.0
- compound: "COc1cc(C2c3cc4c(cc3[C@@H](N(C)c3ccc(N(C)C)cc3)C3COC(=O)C23)OCO4)cc(OC)c1O (some centres undefined)"
  category label: 1.0
- compound: "C=C1c2nc3ccccc3n2C=C(c2ccccc2)N1c1ccc(C)cc1"
  category label: 0.0
- compound: "COC(=O)C1(C(=O)OC)N=C(C)OC1C(C)C (centres undefined)"
  category label: 0.0
- compound: "CCCc1nnc2sc(COc3cc(Cl)c(OCc4nn5c(CCC)nnc5s4)cc3Cl)nn12"
  category label: 1.0
- compound: "CCOC(=O)C(C(=O)c1ccccc1)=C1NCCN1"
  category label: 0.0
- compound: "CC(C)CC(NC(=O)c1cccc(O)c1O)C(=O)NCc1cc(CNC(=O)C(CC(C)C)NC(=O)c2cccc(O)c2O)cc(CNC(=O)C(CC(C)C)NC(=O)c2cccc(O)c2O)c1 (centres undefined)"
  category label: 0.0
- compound: "O=c1c(O)cccn1C1OC(CO)C(O)C1O (centres undefined)"
  category label: 0.0
- compound: "COc1cc(/C=C2\\N=C(c3ccccc3)N(c3ccc4c(c3)Sc3cc(N5C(=O)/C(=C/c6cc(OC)c(OC)c(OC)c6)N=C5c5ccccc5)ccc3N4)C2=O)cc(OC)c1OC"
  category label: 0.0
- compound: "CC(=O)Oc1cc(C)c2c(c1OC(C)=O)CC1(O2)[C@@H](C)CCC2[C@@]3(C)CC[C@H](OC(C)=O)C(C)(C)C3CC[C@]21C (some centres undefined)"
  category label: 0.0
- compound: "CCC(C)(C)NS(=O)(=O)c1ccccc1"
  category label: 0.0
- compound: "CC(=O)OCC1CCC(=C2C(=O)OC(C)(C)OC2=O)N1 (centres undefined)"
  category label: 0.0
- compound: "N#Cc1c(-c2ccc([N+](=O)[O-])cc2)cc(-c2ccc(Nc3ccnc4cc(Cl)ccc34)cc2)nc1N"
  category label: 0.0
- compound: "O=C(c1ccccc1)c1nc2ccc(Cl)cc2c2c1CCCO2"
  category label: 0.0
- compound: "O=S(=O)(c1ccccc1)N1CCCC(c2ccccc2)CC1 (centres undefined)"
  category label: 0.0
- compound: "COCc1nc(C#N)c(N)o1"
  category label: 0.0
- compound: "CCCCn1c2c(c3ccccc3c1=O)C(=O)c1ccccc1-2"
  category label: 0.0
- compound: "Cc1c2cc[n+](C)cc2c(C)c2c1[nH]c1ccc(OC(C)C)cc12"
  category label: 0.0
- compound: "N#C/C(=C(/S)Nc1ccccc1)c1nc2ccccc2[nH]1"
  category label: 0.0
- compound: "Oc1ccc[nH]c1=[Se]"
  category label: 0.0
- compound: "Cc1ccccc1C(=O)Oc1ccc(O)cc1"
  category label: 0.0

----------
tested on: KM-20L2; assay: NCI tumour cell line growth inhibition, 48 h
Active and inactive are the calls of the source. No stated cut-off is given here; in the data, active = GI50 up to about 1.1 µM and inactive = higher.
Classes used: active, inactive

- compound: "COc1ccc(C[C@]23CCC(=O)N2CCc2cc(OC)c(O)cc23)cc1O"
  category label: "inactive"
- compound: "CC(=O)C1Cn2c(=O)c3cc4ccccc4cc3c(=O)n2C=C1C (stereo unspecified)"
  category label: "inactive"
- compound: "CC(C)CCC[C@@H](C)C1CCC2[C@@H]3CC=C4C[C@@H](C(=O)NCCN(C)C)CC[C@]4(C)C3CC[C@@]21C (stereo partly specified)"
  category label: "inactive"
- compound: "COc1ccc(N2C(=O)[C@H]3CC(C)c4c([nH]c5ccccc45)[C@H]3C2=O)cc1 (stereo partly specified)"
  category label: "inactive"
- compound: "CCCC1C[C@H]2CCCCN2[C@H]2CCCN12 (stereo partly specified)"
  category label: "inactive"
- compound: "C=C1C(C)C2C(Cc3ccccc3)NC(=O)C23C(OC(C)=O)C=CC(C)(O)C(=O)C(C)C/C=C/C3C1O (stereo unspecified)"
  category label: "active"
- compound: "Cc1ccccc1C(=O)Oc1ccc(O)cc1"
  category label: "inactive"
- compound: "CCN(CC)CCn1c2c3ccccc3ccc2c2oc(=O)c3ccccc3c21"
  category label: "inactive"
- compound: "C[Si](C)(C)OC1(C#N)C2C3CC4C2C(=O)C2C4C3C21 (stereo unspecified)"
  category label: "inactive"
- compound: "COc1cc(-c2ccc(NC(=O)SCCC(=O)O)cc2OC)ccc1NC(=O)SCCC(=O)O"
  category label: "inactive"
- compound: "COc1cc2ccc3c4cc(OC)c(OC)cc4c[n+](C)c3c2cc1O"
  category label: "inactive"
- compound: "O=C(Nc1nc2ccccc2n1Cc1ccc(Cl)cc1)NC12CC3CC(CC(C3)C1)C2"
  category label: "inactive"
- compound: "CCCCCCCC(CC(=O)NC(CO)C(=O)NC(CO)CC(C)C)OC(=O)CC(CCCCCCC)OC(=O)CC(CCCCCCC)OC1OC(C)C(O)C(OC2OC(C)C(O)C(O)C2O)C1O (stereo unspecified)"
  category label: "inactive"
- compound: "N#C/C(c1nc2ccccc2[nH]1)=c1\\s/c(=C/c2ccccc2)c(=O)n1-c1ccccc1"
  category label: "inactive"
- compound: "COc1ccc(S(=O)(=O)N(CC(=O)O)c2ccccc2)cc1"
  category label: "inactive"
- compound: "Cn1cnc([N+](=O)[O-])c1Sc1nccn1-c1ccccc1"
  category label: "inactive"
- compound: "Cc1ccc(S(=O)(=O)OC[C@@H]2CO2)cc1"
  category label: "inactive"
- compound: "O=c1c(O)cccn1C1OC(CO)C(O)C1O (stereo unspecified)"
  category label: "inactive"
- compound: "COc1ccc(-c2cc(-c3cc(C)ccc3O)nc(O)n2)cc1"
  category label: "inactive"
- compound: "NC(=O)CCC(NCc1c2ccccc2[n+]([O-])c2ccccc12)C(=O)O (stereo unspecified)"
  category label: "inactive"
- compound: "O=c1cc(O)cc2n1CCC2"
  category label: "inactive"
